Overview of recorded AC50 for various compounds
Target: human PAH with the R408W mutation (A375 R408W cells) (Homo sapiens, UniProt P00439, R408W)
Construct: expressed in transfected cells
Sequence (P00439 whole entry R408W): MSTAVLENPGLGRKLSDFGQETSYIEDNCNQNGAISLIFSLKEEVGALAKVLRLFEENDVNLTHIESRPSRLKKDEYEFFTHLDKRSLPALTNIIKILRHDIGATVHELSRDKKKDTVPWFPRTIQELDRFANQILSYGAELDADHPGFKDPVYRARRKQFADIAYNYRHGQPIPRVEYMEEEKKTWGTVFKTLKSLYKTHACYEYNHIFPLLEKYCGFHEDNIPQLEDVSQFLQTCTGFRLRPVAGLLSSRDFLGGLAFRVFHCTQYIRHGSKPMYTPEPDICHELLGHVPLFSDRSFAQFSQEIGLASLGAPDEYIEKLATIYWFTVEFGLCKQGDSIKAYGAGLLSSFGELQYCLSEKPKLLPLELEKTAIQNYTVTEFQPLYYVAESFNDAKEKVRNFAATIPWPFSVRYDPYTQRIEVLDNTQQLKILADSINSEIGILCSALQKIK
Test: Cell Based Phenylalanine Flux Assay
Details: A375 R408W cells; 24 hrs with compound, then 20 μM sepiapterin and 800 μM 13C9,15N-Phenylalanine for 4 hours; 13C-Tyrosine by LC-MS; average where tested multiple times

// field: AC50; key: `Cn1nc(C(F)F)nc1C(=O)N1CCc2[nH]cnc2[C@H]1c1nc2ccccc2o1` ; value = 500 to 1000 nM

// field: AC50; key: `Cc1ccc2nc([C@H]3c4nc[nH]c4CCN3C(=O)c3nnc(-c4ncccc4F)o3)oc2c1` ; value = 1000 to 5000 nM

// field: AC50; key: `O=C(c1ccnn1C(F)F)N1CCc2[nH]cnc2[C@H]1c1nc2cc(F)cc(F)c2o1` ; value = 500 to 1000 nM

// field: AC50; key: `CN1CCN(c2ccc3c(C(=O)N4CCc5[nH]cnc5[C@@H]4c4nc5cccc(F)c5o4)cnn3c2)CC1` ; value = 1000 to 5000 nM

// field: AC50; key: `Cc1ccc2oc([C@H]3c4nc[nH]c4CCN3C(=O)c3ccnn3C(F)F)nc2c1` ; value = 500 to 1000 nM

// field: AC50; key: `CC(C)(O)c1nc(Cl)c(C(=O)N2CCc3[nH]cnc3[C@@H]2c2nc3cc(F)ccc3o2)o1` ; value = ≥ 5000 nM

// field: AC50; key: `CC(C)(O)c1nc(C(F)F)c(C(=O)N2CCc3[nH]cnc3[C@@H]2c2nc3c(Cl)cccc3o2)o1` ; value = 500 to 1000 nM

// field: AC50; key: `O=C(c1ocnc1C(F)(F)F)N1CCc2[nH]cnc2[C@@H]1c1nc2cc(F)ccc2o1` ; value = 1000 to 5000 nM

From: patent US20250171437A1
